Experiment: Primary fluorescence-based thiol-reactive (MSTI) qHTS assay for identification of artifact compounds. (AID 1845221); also: nearly all actives have a fitted effect of over 65% in size
Details: MSTI thiol-reactivity probe, 1 h; series mostly up to 53.8 µM
Inconclusive results are not listed. Active and inactive are the calls of the source. Calls follow the shape of the dose curve; as a rule, active = well fitted inhibition curve with a large enough effect; inconclusive = small, poorly fitted or top-dose-only effect; inactive = no such curve, though single readings can be large or run the other way.
Form entry, call: pick from Yes (active), No (inactive)

Q: What was the test verdict on C[C@@H]1O[C@@H](O[C@H]2[C@@H]3C=CO[C@@H](O[C@@H]4O[C@H](CO)[C@@H](O)[C@H](O)[C@H]4O)[C@@H]3[C@@]3(CO)O[C@@H]23)[C@H](O)[C@H](OC(=O)/C=C/c2ccc(O)cc2)[C@H]1OC(=O)/C=C/c1ccc(O)cc1 ?
Ans: No

Q: Any idea what this test logged for COc1ccc(-n2c(SCC#N)nc3sc4c(c3c2=O)CCCC4)cc1 ?
Ans: No

Q: # lookup: test call for COc1cc(CCCO)ccc1O[C@@H]1O[C@H](CO)[C@@H](O)[C@H](O)[C@H]1O
Ans: Yes

Q: Kindly provide the recorded test outcome for the following compound: O=C(/C=C/c1ccc(O)cc1)OCC1OC(O)C(OC2OC(CO)C(O)C(O)C2O)C(O)C1O (configuration not stated)
Ans: No

Q: // param item: C=C1[C@@H]2CC[C@@]3(C)[C@H](c4ccoc4)OC(=O)C[C@]13O[C@H]1CC(=O)C(C)(C)[C@H](C(O)C(=O)OC)[C@]12C (some centres not stated) ; yields the recorded call
Ans: No

Q: Call for entry Cc1ccc(Cl)cc1N(CC(=O)Nc1c(F)cccc1F)S(C)(=O)=O :
Ans: No

Q: GET /call?item= CC1(C)OC(=O)C=C[C@@]2(C)C1CC(=O)[C@]1(C)C2CC[C@@]2(C)[C@H](c3ccoc3)OC(=O)[C@H]3O[C@]321 (some centres not stated) returns the recorded outcome of this test.
Ans: No

---

Tested on: Tov-21-G
Assay: Primary qHTS to identify gynecologic anti-cancer compounds using libraries of approved drugs and bioactive compounds (AID 1345084); also: nearly all actives have a fitted effect of over 55% in size
Details: Gynecologic cancer cell panel viability, ATPlite luminescence, 48 h; series mostly up to 57.5 µM
Results filed as inconclusive are left out. The source made the active and inactive calls. Calls come from the whole dose curve; as a rule, active = well fitted cell-killing curve with a large enough effect; inconclusive = small, poorly fitted or top-dose-only effect, or effect the other way; inactive = flat fitted curve, though single readings scatter.
parameter.measured: activity change, negative = cytotoxicity

Sample records with activity change, negative = cytotoxicity:
Cc1occc1C(=O)n1ccnc1: inactive
C=C1C[C@]23C[C@H]1CC[C@H]2[C@]1(C)CC[C@H](O)[C@@](C)(C(=O)O)[C@H]1[C@@H]3C(=O)O: inactive
CC(C)c1ccc2c(c1)[C@H](O)CC1[C@@](C)(C(=O)O)CCC[C@]21C (stereo partly specified): inactive
CC1=C2C[C@H]3OC(=O)[C@H](O)[C@@]4(O)[C@@H](C)[C@@H](O)[C@H](O)C([C@@]2(C)[C@H](O)[C@@H](O)C1)[C@@]34C (stereo partly specified): inactive
C=C1CC2C(C)(CCC(=O)O)C(C(C)(C)O)CCC2(C)C2(C(=O)OC)C(=O)C(C)(O)C(=O)C12C (stereo unspecified): inactive

Q: Item C/C=C/C=C/C=C/C(=O)N(C)C(C(=O)NC(C)C(=O)N1CCCC1C(N)=O)C(C)C (stereo unspecified) : provide activity change, negative = cytotoxicity
Ans: inactive

Q: Give activity change, negative = cytotoxicity for CC1(C)CC=C(C#Cc2ccccc2)c2cc(/C=C/c3ccc(C(=O)O)cc3)ccc21
Ans: inactive

Q: Find the measured activity change, negative = cytotoxicity of C=C1C[C@H](O)[C@@H](O)[C@@]2(C)C1[C@@H](O)[C@H]1OC(=O)C3[C@@H](C)[C@@H](O)[C@H](O)C2[C@]31C (stereo partly specified) and report it.
Ans: inactive

Q: Look up and report measured activity change, negative = cytotoxicity for this entry: O=C(O[C@H]1[C@H](Oc2ccc(O)cc2CO)O[C@H](CO)[C@@H](O)[C@@H]1O)c1ccccc1
Ans: inactive

Q: Indicate its recorded activity change, negative = cytotoxicity; the compound in question is Cc1ccc(-n2nc(C(C)(C)C)cc2NC(=O)Nc2cc(COc3cccnc3)[nH]n2)cc1
Ans: inactive

Q: Dear colleague, please send me the reported activity change, negative = cytotoxicity for COC(=O)C1=COC(O[C@@H]2O[C@H](CO)[C@@H](O)[C@H](O)[C@H]2O)C2C(C)C(=O)CC12 (stereo partly specified) when you can.
Ans: inactive

These data points were gathered from PubChem BioAssay (NCATS).
